Each recorded value in this set is attributed to paper PMC5290327.

# Tested on: P. falciparum strain D10
# EXPERIMENTAL DETAILS: Growth inhibition assay
# Format: cell-based
# CONDITION LABEL: Plasmodium falciparum
QUANTITY: pIC50
Friendly reminder that pIC50 comes from taking -log10 of the concentration in mol/L.

[[record]]
compound = "CCc1nc(N)nc(N)c1-c1ccc(Cl)cc1 [Pyrimethamine]"
result_value = 7.96

[[record]]
compound = "CCN(CC)CCCC(C)Nc1ccnc2cc(Cl)ccc12 (centres unmarked) [Chloroquine]"
result_value = 7.96

[[record]]
compound = "C[C@@H]1CC[C@H]2[C@@H](C)C(=O)O[C@@H]3O[C@@]4(C)CC[C@@H]1[C@]32OO4 [Artemisinin]"
result_value = 8.05

[[record]]
compound = "C=C[C@H]1C[N@@]2CC[C@H]1C[C@@H]2[C@@H](O)c1ccnc2ccc(OC)cc12 [Quinidine]"
result_value = 7.80


Field: next compound
Record COC(=O)N1CCN(C(=N)c2cccc(NC(=O)Nc3ccc(S(=O)(=O)NCc4ccc(S(N)(=O)=O)cc4)cc3)c2)CC1 [SC83288] ; system P. falciparum strain D10; pIC50 = 8.30
